This listing pairs compounds with measured max response.
Tested on: CRL-7250
ASSAY_SUMMARY: Cytotoxic Profiling of Annotated Libraries Using Quantitative High-Throughput Screening (AID 1296008); note: % is set by controls: 0 for no effect and ±100 for the full control effect; nearly all actives have a fitted effect of over 60% in size
ASSAY_CONTEXT: Five cell lines viability, CellTiter-Glo ATP luminescence, 48-72 h; active compounds read low
Records with an inconclusive call do not appear.
Could you give me the number in %? Just the number is fine.

{"columns": ["COMPOUND", "REPORTED_MEASUREMENT"],
 "data": [
  ["C[C@@H]1O[C@@H](O[C@H]2[C@H](O[C@H]3[C@H](O[C@H]4CC[C@@]5(C)C(CC[C@]6(C)C5CC=C5[C@@H]7CC(C)(C)C[C@@H](O)[C@]7(C)CC[C@]56C)[C@@]4(C)CO)O[C@H](C(=O)O)[C@@H](O)[C@@H]3O)O[C@H](C(=O)O)[C@H](O)[C@@H]2O)[C@H](O)[C@H](O)[C@H]1O (some centres undefined)", -5.52],
  ["NC1Nc2ccccc2C1(N)CC1NC(=O)C(Cc2ccccc2)NC(=O)C(Cc2ccccc2)NC1=O (centres undefined)", -1.59],
  ["Cc1ccccc1-c1cc(N2CCN(C)CC2)ncc1N(C)C(=O)C(C)(C)c1cc(C(F)(F)F)cc(C(F)(F)F)c1", 1.9]
]}

Here is another compound to look at.
**Q:** Look up max response for this compound: CC(=O)[C@@H]1C[C@H](C(C)(C)O[C@@H]2O[C@H](CO)[C@@H](O)[C@H](O)[C@H]2O)CC[C@@]2(CO)OC(=O)C[C@@H]12
**A:** -8.92

###

Tested on: NIH3T3
ASSAY_SUMMARY: Cytotoxic Profiling of Annotated Libraries Using Quantitative High-Throughput Screening (AID 1296008); note: % is set by controls: 0 for no effect and ±100 for the full control effect; nearly all actives have a fitted effect of over 60% in size
ASSAY_CONTEXT: Five cell lines viability, CellTiter-Glo ATP luminescence, 48-72 h; active compounds read low
Records with an inconclusive call do not appear. Calls of active or inactive are those of the source. The call rests on the fitted dose curve; in most records, active means well fitted inhibition curve with a large enough effect; inconclusive means small, poorly fitted or top-dose-only effect; inactive means flat fitted curve, though single readings scatter.
Parameter max response: see the listing below.

Some compounds with recorded max response:
{"columns": ["COMPOUND", "REPORTED_MEASUREMENT"],
 "data": [
  ["COc1cc(Cc2cnc(N)nc2N)c(C(C)C)cc1OC", "3.87% (inactive)"],
  ["CC(CC(C)O[C@@H]1O[C@H](CO)[C@@H](O)[C@H](O)[C@H]1O)OC(=O)/C=C/c1ccc(O)cc1 (stereo partly specified)", "3.43% (inactive)"],
  ["C[C@@H]1CC[C@]2(C(=O)O[C@@H]3O[C@H](CO[C@@H]4O[C@H](CO)[C@@H](O[C@@H]5O[C@@H](C)[C@H](O)[C@@H](O)[C@H]5O)[C@H](O)[C@H]4O)[C@@H](O)[C@H](O)[C@H]3O)CC[C@]3(C)C(=CCC4[C@@]5(C)C[C@@H](O)[C@H](O)[C@@](C)(CO)C5CC[C@]43C)C2[C@H]1C (stereo partly specified)", "1.43% (inactive)"],
  ["C/C=C1\\[C@H](O[C@@H]2O[C@H](CO)[C@@H](O)[C@H](O)[C@H]2O)OC=C(C(=O)OCCc2ccc(O)cc2)[C@H]1CC(=O)OCCc1ccc(O)cc1", "-3.77% (inactive)"],
  ["OCC1OC(Oc2cc(O)cc(/C=C/c3ccc(OC4OC(CO)C(O)C(O)C4O)cc3O)c2)C(O)C(O)C1O (stereo unspecified)", "0.921% (inactive)"]
]}

**Q:** So what max response did C/C=C/C=C/C=C/C(=O)N(C)C(C(=O)NC(C)C(=O)N1CCCC1C(N)=O)C(C)C (stereo unspecified) get with NIH3T3?
**A:** 0.323% (inactive)

**Q:** What max response appears in the records for this compound with NIH3T3? CCC(=O)N1CCc2cc(OC)c(O)cc2C1
**A:** 3.84% (inactive)

**Q:** Field: max response (NIH3T3). Entry: CC(=O)O[C@@H]1C[C@@H](C)[C@](O)(CCC2=CC(=O)OC2)[C@@]2(C)CCCC(C)(C)C12 (stereo partly specified)
**A:** 2.01% (inactive)

**Q:** Request body: readout max response, system NIH3T3, query CCC[C@H](N[C@@H](C)C(=O)N1[C@H](C(=O)O)C[C@@H]2CCCC[C@@H]21)C(=O)O . Return the value.
**A:** -10.2% (inactive)

**Q:** Form field - read-out: max response; system: NIH3T3; submitted item: COc1c(C)c(OCC=C(C)C)cc2c1COC2=O
**A:** 2.66% (inactive)
